Recorded values, source patent US20130280260A1.

Catalogue of OD450-595 values
# Test system: monoclonal antibody 20B12 (anti-VDAC1)
# methodNotes: Epitope analysis by ELISA using synthetic peptides covering VDAC1
# Assay type: binding, mouse
# testConditions: first time; 20B12 at 5 μg/mL; average of two wells
# Description: In order to examine an epitope for the anti-VDCA monoclonal antibody (VDAC1(20B12), SANTA CRUZ Biotechnology, Inc., sc-58649, mouse monoclonal IgG2b, 100 μg/ml), an analysis was conducted by ELISA using synthetic peptides (Table 1). As the synthetic peptides, 28 types of peptides were prepared so as to cover the VDAC1 completely. […] ELISA was performed using the plate to which the peptide was fixed in 7.1, and antibodies bound to the peptide were detected. […]
# respond with the number and nothing more

// below: answered sequences
INSERT INTO results (chainsequence, metric, reportedresult) VALUES
  ('KLETAVNLAW TAGNSNTRFG (KLETAVNLAWTAGNSNTRFG) [Peptide 21, synthetic peptide covering part of VDAC1]', 'OD450-595', 0.235),
  ('GGHKLGLGLE FQA (GGHKLGLGLEFQA) [Peptide 28, synthetic peptide covering part of VDAC1]', 'OD450-595', 0.418),
  ('SLIGLGYTQT LKPGIKLTLS (SLIGLGYTQTLKPGIKLTLS) [Peptide 25, synthetic peptide covering part of VDAC1]', 'OD450-595', 0.590),
  ('TTKVTGSLET KYRWTEYGLT (TTKVTGSLETKYRWTEYGLT) [Peptide 6, synthetic peptide covering part of VDAC1]', 'OD450-595', 0.358),
  ('EHINLGCDMD FDIAGPSIRG (EHINLGCDMDFDIAGPSIRG) [Peptide 13, synthetic peptide covering part of VDAC1]', 'OD450-595', 0.369);

Consider the additional sequence presented here.
For record LKPGIKLTLS ALLDGKNVNA (LKPGIKLTLSALLDGKNVNA) [Peptide 26, synthetic peptide covering part of VDAC1] the listed OD450-595 is 0.268

* * *

# Test system: monoclonal antibody 20B12 (anti-VDAC1)
# methodNotes: Epitope analysis by ELISA using synthetic peptides covering VDAC1
# Format: binding, mouse
# testConditions: first time; 20B12 at 5 μg/mL; average of two wells
Catalogue of OD450-595 values

INSERT INTO measurements (chainsequence, reportedresult) VALUES
  ('FTSSGSANTE TTKVTGSLET (FTSSGSANTETTKVTGSLET) [Peptide 5, synthetic peptide covering part of VDAC1]', 0.311),
  ('NAKIKTGYKR EHINLGCDMD (NAKIKTGYKREHINLGCDMD) [Peptide 12, synthetic peptide covering part of VDAC1]', 0.345);

For record MAVPPTYADL GKSARDVFTK (MAVPPTYADLGKSARDVFTK) [Peptide 1, synthetic peptide covering part of VDAC1] the listed OD450-595 is 0.448

For record SSFSPNTGKK NAKIKTGYKR (SSFSPNTGKKNAKIKTGYKR) [Peptide 11, synthetic peptide covering part of VDAC1] the listed OD450-595 is 0.319

For record GKSARDVFTK GYGFGLIKLD (GKSARDVFTKGYGFGLIKLD) [Peptide 2, synthetic peptide covering part of VDAC1] the listed OD450-595 is 0.363

For record FDIAGPSIRG ALVLGYEGWL (FDIAGPSIRGALVLGYEGWL) [Peptide 14, synthetic peptide covering part of VDAC1] the listed OD450-595 is 0.316

For record ACFSAKVNNS SLIGLGYTQT (ACFSAKVNNSSLIGLGYTQT) [Peptide 24, synthetic peptide covering part of VDAC1] the listed OD450-595 is 1.284

* * *

# System: monoclonal antibody 20B12 (anti-VDAC1)
# methodNotes: Epitope analysis by ELISA using synthetic peptides covering VDAC1
# Type: binding, mouse
# testConditions: first time; 20B12 at 5 μg/mL; average of two wells
metric: OD450-595

// below: answered sequences
INSERT INTO assay_data (chainsequence, systemtested, reportedresult) VALUES
  ('KSRVTQSNFA VGYKTDEFQL (KSRVTQSNFAVGYKTDEFQL) [Peptide 17, synthetic peptide covering part of VDAC1]', 'monoclonal antibody 20B12 (anti-VDAC1)', 0.285),
  ('KYRWTEYGLT FTEKWNTDNT (KYRWTEYGLTFTEKWNTDNT) [Peptide 7, synthetic peptide covering part of VDAC1]', 'monoclonal antibody 20B12 (anti-VDAC1)', 0.321),
  ('ALLDGKNVNA GGHKLGLGLE (ALLDGKNVNAGGHKLGLGLE) [Peptide 27, synthetic peptide covering part of VDAC1]', 'monoclonal antibody 20B12 (anti-VDAC1)', 0.290),
  ('FTEKWNTDNT LGTEITVEDQ (FTEKWNTDNTLGTEITVEDQ) [Peptide 8, synthetic peptide covering part of VDAC1]', 'monoclonal antibody 20B12 (anti-VDAC1)', 0.341),
  ('ALVLGYEGWL AGYQMNFETA (ALVLGYEGWLAGYQMNFETA) [Peptide 15, synthetic peptide covering part of VDAC1]', 'monoclonal antibody 20B12 (anti-VDAC1)', 0.337);

For record TAGNSNTRFG IAAKYQIDPD (TAGNSNTRFGIAAKYQIDPD) [Peptide 22, synthetic peptide covering part of VDAC1] the listed OD450-595 is 0.318

For record GYGFGLIKLD LKTKSENGLE (GYGFGLIKLDLKTKSENGLE) [Peptide 3, synthetic peptide covering part of VDAC1] the listed OD450-595 is 0.280

For record AGYQMNFETA KSRVTQSNFA (AGYQMNFETAKSRVTQSNFA) [Peptide 16, synthetic peptide covering part of VDAC1] the listed OD450-595 is 0.388

* * *

# System: monoclonal antibody 20B12 (anti-VDAC1)
# methodNotes: Epitope analysis by ELISA using synthetic peptides covering VDAC1
# Type: binding, mouse
# testConditions: first time; 20B12 at 5 μg/mL; average of two wells
# if value of OD450-595 reaches 0.3, tag condition met; if it stays below, tag condition not met

Example results:
INSERT INTO measurements (chainsequence, labelclass) VALUES
  ('LKTKSENGLE FTSSGSANTE (LKTKSENGLEFTSSGSANTE) [Peptide 4, synthetic peptide covering part of VDAC1]', 'condition met'),
  ('VGYKTDEFQL HTNVNDGTEF (VGYKTDEFQLHTNVNDGTEF) [Peptide 18, synthetic peptide covering part of VDAC1]', 'condition not met'),
  ('IAAKYQIDPD ACFSAKVNNS (IAAKYQIDPDACFSAKVNNS) [Peptide 23, synthetic peptide covering part of VDAC1]', 'condition not met'),
  ('GGSIYQKVNK KLETAVNLAW (GGSIYQKVNKKLETAVNLAW) [Peptide 20, synthetic peptide covering part of VDAC1]', 'condition met'),
  ('LGTEITVEDQ LARGLKLTFD (LGTEITVEDQLARGLKLTFD) [Peptide 9, synthetic peptide covering part of VDAC1]', 'condition not met');

Can LARGLKLTFD SSFSPNTGKK (LARGLKLTFDSSFSPNTGKK) [Peptide 10, synthetic peptide covering part of VDAC1] be said to have OD450-595 at or above 0.3? condition met
